- System: Plasmodium falciparum
- protocolDetails: GSK_TCMDC: Inhibition of Plasmodium falciparum 3D7 in whole red blood cells, using parasite LDH activity as an index of growth. Test compounds present at 2uM
- Format: functional
List of Inhibition values.
measurementName: Inhibition (%)

> print(dat)
                                    molecule     targetortestsystem  readingunit  datavalue
 1  COc1ccc(CNCc2cccc(-c3ccc(-c4nc5ccccc5[nH]4)cc3)c2)cc1.O=C(O)C(F)(F)F  Plasmodium falciparum            %        100
 2  Cc1cccc(-c2ccc(CNC3CCN(CC4Cn5c(=O)ccc6ccc(F)c4c65)CC3)cn2)c1.O=C(O)C(F)(F)F (stereo not given)  Plasmodium falciparum            %         90
 3    Cc1cc(NC(=O)Nc2cccc(Cl)c2Cl)c2ccccc2n1  Plasmodium falciparum            %         96
 4  CC(C)C[C@H]1C(=O)N[C@H](C2Cc3ccccc3C2)C(=O)N1[C@@H](C(=O)Nc1ccccc1OCc1ccccc1)c1ccc(F)cc1F  Plasmodium falciparum            %         90
 5  O=C(Nc1cccc(-c2nn3ccccc3c2-c2ccnc(Nc3cccc(F)c3)n2)c1)c1c(F)ccc(F)c1Cl  Plasmodium falciparum            %         93
 6  COc1ccccc1C1CCN(C2CCC(NC(=O)c3cc4ccccc4[nH]3)CC2)CC1 (stereo not given)  Plasmodium falciparum            %         88
 7  CCSc1nnc(C2CCCN(CC(=O)Nc3cc(C(F)(F)F)ccc3Cl)C2)n1CC (stereo not given)  Plasmodium falciparum            %         99
 8     COc1ccc(C2=[N+]([O-])c3ccccc3C2=O)cc1  Plasmodium falciparum            %         93
 9  COc1c(C2CCN(CCCCNC(=O)c3ccc(-c4ccc(Cl)cc4)c(OCC(N)=O)c3)CC2)ccc2c1CCCC2  Plasmodium falciparum            %         97
10  CC1=C(C(=O)OC(C)C)C(c2ccccc2Cl)C2=C(CC(c3ccccc3)CC2=O)N1 (stereo not given)  Plasmodium falciparum            %         93
11  Cc1ccc(CNC(=O)c2cnc(N3CCN(c4ccncc4)CC3)c(Cl)c2)cc1.O=C(O)C(F)(F)F  Plasmodium falciparum            %         92
12  CC1CCC(NCc2c(O)ccc3ccccc23)CC1.Cl (stereo not given)  Plasmodium falciparum            %         95
13  COc1cccc2cc(C(=O)N[C@@H](CC(C)C)C(=O)N[C@H](/C=N/NC(=O)c3ccccc3)Cc3c[nH]cn3)oc12  Plasmodium falciparum            %         99
14      COc1cc(OC)c2c(C)cc(NCCCn3ccnc3)nc2c1  Plasmodium falciparum            %        100
15  COc1cc2c(cc1OC)C(C)(C)CN1Cc3c(c(CO)c(OC)c(OC)c3OC)CC21.Cl (stereo not given)  Plasmodium falciparum            %         95
16    CC(=NNC(=N)N)c1ccc2c(ccc3ccccc32)c1.Cl  Plasmodium falciparum            %        100
17  CCn1c(SCc2ccc(F)cc2)nc2sc3c(c2c1=O)CCN(C)C3  Plasmodium falciparum            %         95
18  CC(C)(C)OC(=O)NCc1ccc(Nc2nnc(-c3ccc(OCC(=O)NCc4ccc(C(C)(C)C)cc4)c([N+](=O)[O-])c3)o2)cc1  Plasmodium falciparum            %         96
19  CS(=O)(=O)NCCCNCc1cccc(-c2cccc(-c3nc4cc(F)ccc4[nH]3)c2)c1.O=C(O)C(F)(F)F  Plasmodium falciparum            %        100
20  CCc1ccc(C2CCN(CCCCNC(=O)c3ccc(-c4ccc(C#N)cc4)cc3)CC2)c(OCCO)c1.Cl  Plasmodium falciparum            %         94
21  CN1CCN(C(C(=O)NCc2cc(Cl)cc(Cl)c2)c2ccccc2-c2ccsc2)CC1 (stereo not given)  Plasmodium falciparum            %         95
22  COc1ccc(Cc2nc3c(n2C(C)=O)SC(c2ccc(Cl)c(Cl)c2)=NN3C(C)=O)cc1  Plasmodium falciparum            %         94
23  Cl.N#Cc1ccc2c(c1)CCN(CCC1CCC(NC(=O)c3cccc(-c4ccc(F)cc4)c3)CC1)CC2 (stereo not given)  Plasmodium falciparum            %         92
24  CCN(CCO)Cc1ccc(-c2ccc(NS(=O)(=O)c3cccc4cccnc34)cc2)cc1.O=C(O)C(F)(F)F  Plasmodium falciparum            %         92
25  COc1ccc(C2=C(Nc3ccc4oc5ccccc5c4c3)c3ccccc3C2=O)cc1  Plasmodium falciparum            %         93
26  CCN(CCCN1CCCCC1)c1cc(C)nc(Nc2cc(Cl)cc(Cl)c2)n1.O=C(O)C(F)(F)F  Plasmodium falciparum            %        100
27  CC(C)Cc1ccc(N2CCN(CCCCNC(=O)c3ccc(NC(=O)c4ccc(Cl)c(Cl)c4)cc3)CC2)cc1  Plasmodium falciparum            %         94
28  CN(C)CCNC(=O)[C@H](Cc1ccccc1)NC(=O)c1ccc(O)c(-c2ccc(Cl)c(Cl)c2)c1  Plasmodium falciparum            %         98
29  CC(C)C[C@H]1c2[nH]c3ccc(Cl)cc3c2CCN1C(=O)CCc1ccccc1  Plasmodium falciparum            %         95
30   Cc1c(Cc2ccc(F)cc2)c(Cl)nc2nc(N)nc(N)c12  Plasmodium falciparum            %         92
